The reported measurements were obtained from ChEMBL document CHEMBL1143769.

- Tested on: Rattus norvegicus
- assay text: Decrease in total cholesterol levels in high-cholesterol diet fed Wistar rat at 4 mg/kg/day
- Format: functional
- Design: scale not given: the % may be the effect or the level left
Reported Activity values follow for various molecules
Write the answer as a number in %, unit excluded.

O=C1[C@H](c2ccc(F)cc2)[C@@H](c2ccc(O)cc2)N1CC[C@H](O)c1ccc(F)cc1 : -26
O=C1[C@@H](c2ccc(F)cc2)[C@H](c2ccc(O)cc2)N1CC[C@@H](O)c1ccc(F)cc1 : -18
O=C1[C@H](c2ccc(F)cc2)[C@@H](c2ccc(O)cc2)N1CC[C@@H](O)c1ccc(F)cc1 : -17
O=C1[C@@H](c2ccc(F)cc2)[C@H](c2ccc(O)cc2)N1CC[C@H](O)c1ccc(F)cc1 : -25

Now for another entry.
Exercise: What Activity value was documented for this molecule, O=C1[C@H](CC[C@H](O)c2ccc(F)cc2)[C@@H](c2ccc(O)cc2)N1c1ccc(F)cc1 ?
Key: -51
